- target_entity: G-protein coupled receptor 151 (Homo sapiens)
- procedure_summary: activators of human GPR151, primary screen, cell-based, PathHunter beta-arrestin, luminescence (AID 1508602);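 also: 0% = median of compound wells and 100% = cells with positive control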
- experimental_context: PathHunter beta-arrestin GPR151 cells, at 11.2 µM
About 6,800 (1%) of roughly 650,000 compounds were called active. Rule as the data show it: active = activation above about 4.9%; inactive = the rest. This is one part of a sample in which actives are shown more often than they occur.
Your response should consist of one outcome taken from 1 (yes) = active, 0 (no) = inactive

// known answers, use as guide
compound: O=C(c1ccc(CNS(=O)(=O)c2ccc(Cl)cc2)cc1)N1CCCC1
class_assignment: 1 (yes)
--
compound: O=C1NCCN(Cc2ccc(F)c(F)c2)C1CC(=O)N1CCCC1 (stereo unspecified)
class_assignment: 0 (no)
--
compound: COc1ccc(CN2CCOc3ccc(C(C)(O)CN(C)C)cc3C2)c(Cl)c1OC (stereo unspecified)
class_assignment: 0 (no)
--
compound: O=C(c1ccc(Cl)cc1)N1CCCC1
class_assignment: 0 (no)
--
compound: CCOC(C(=O)c1ccccc1)c1ccccc1 (stereo unspecified)
class_assignment: 0 (no)

## Task Could you check what this test reported for O=C1NCCN(Cc2ccc(-c3ccccc3)cc2)C1CC(=O)N1CCCCC1 (stereo unspecified) ?
## Result 1 (yes)

----------
- target_entity: G-protein coupled receptor 151 (Homo sapiens) (UniProt Q8TDV0)
- Sequence (Q8TDV0 whole entry, looked up): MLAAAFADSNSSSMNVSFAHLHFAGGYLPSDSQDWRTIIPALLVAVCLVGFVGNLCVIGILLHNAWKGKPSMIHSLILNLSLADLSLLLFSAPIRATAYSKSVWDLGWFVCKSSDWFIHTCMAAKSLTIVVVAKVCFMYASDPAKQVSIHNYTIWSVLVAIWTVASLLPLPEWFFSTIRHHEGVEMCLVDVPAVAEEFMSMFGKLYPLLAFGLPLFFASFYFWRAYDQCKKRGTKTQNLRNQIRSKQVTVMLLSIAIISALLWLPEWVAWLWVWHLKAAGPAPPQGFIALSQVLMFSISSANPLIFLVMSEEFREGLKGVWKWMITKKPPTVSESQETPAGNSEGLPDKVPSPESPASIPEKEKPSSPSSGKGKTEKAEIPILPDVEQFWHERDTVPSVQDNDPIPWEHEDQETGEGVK
- procedure_summary: activators of human GPR151, primary screen, cell-based, PathHunter beta-arrestin, luminescence (AID 1508602);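 also: 0% = median of compound wells and 100% = cells with positive control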
- experimental_context: PathHunter beta-arrestin GPR151 cells, at 11.2 µM
The campaign covered roughly 650,000 compounds. About 6,800 (1%) were called active. Rule as the data show it: active = activation above about 4.9%; inactive = the rest. The full list was thinned out, with actives kept by preference.
One label from this list, please: class 1 = active, class 0 = inactive

Field: example entries. Status: answers known.
cpd_smiles: Cc1cccc(C)c1-n1c(N)c(C(=O)NCc2ccccc2)sc1=S
target_entity: G-protein coupled receptor 151 (Homo sapiens) (UniProt Q8TDV0)
class_assignment: class 0
--
cpd_smiles: CCC(CC)C(=O)Nc1cccc(F)c1
target_entity: G-protein coupled receptor 151 (Homo sapiens) (UniProt Q8TDV0)
class_assignment: class 0
--
cpd_smiles: CCC(CC)C(=O)Nc1cccc(C(=O)Nc2ccccc2C(=O)NC(C)C)c1
target_entity: G-protein coupled receptor 151 (Homo sapiens) (UniProt Q8TDV0)
class_assignment: class 0
--
cpd_smiles: O=C(CCc1ccccc1)Nc1cccc(C(=O)N2CCOCC2)c1
target_entity: G-protein coupled receptor 151 (Homo sapiens) (UniProt Q8TDV0)
class_assignment: class 1
--
cpd_smiles: O=C(CN1C(=O)S/C(=C\c2ccc(Cl)s2)C1=O)Nc1ccccc1F
target_entity: G-protein coupled receptor 151 (Homo sapiens) (UniProt Q8TDV0)
class_assignment: class 1

Please examine the following record next.
## Task What is the recorded call for this molecule in the test? CCC(CC)C(=O)Nc1cccc(C(=O)N2CCCC2)c1
## Result class 1

----------
- target_entity: G-protein coupled receptor 151 (Homo sapiens) (UniProt Q8TDV0)
- procedure_summary: activators of human GPR151, primary screen, cell-based, PathHunter beta-arrestin, luminescence (AID 1508602);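 also: 0% = median of compound wells and 100% = cells with positive control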
- experimental_context: PathHunter beta-arrestin GPR151 cells, at 11.2 µM, active compounds read high
Out of some 650,000 compounds screened, about 6,800 (1%) were called active. For the sample, actives were picked, then their nearest neighbours and some compounds at random.
Below, each entry is listed alongside its reported activation.
Express it in %; write the number only.

compound: COc1ccc(C(=O)NNC(=O)c2ccccc2[N+](=O)[O-])cc1OC
unit_text: %
quantitative_readout: -0.216
--
compound: CN(C)c1ccc(NC(=O)c2ccc([N+](=O)[O-])cc2)c2ccccc12
unit_text: %
quantitative_readout: 2.25
--
compound: COc1ccc(C2=NN(C(=O)c3cc(OC)c(OC)c(OC)c3)C(c3ccc(Cl)cc3)C2)cc1OC (stereo not drawn)
unit_text: %
quantitative_readout: 7.04

## Task # query: activation | item O=C(Cc1cccs1)Nn1c(-c2cccc([N+](=O)[O-])c2)nc2ccccc2c1=O | system: G-protein coupled receptor 151 (Homo sapiens) (UniProt Q8TDV0)
## Result 5.65

## Task Record O=C(O)c1cccc(-n2[nH]c(=O)ccc2=O)c1 : what is its activation with G-protein coupled receptor 151 (Homo sapiens) (UniProt Q8TDV0)?
## Result -1.37

## Task Recorded activation for CCCN1C(=O)c2ccc(C(=O)Nc3ccc(O)cc3C(=O)O)cc2C1=O with G-protein coupled receptor 151 (Homo sapiens) (UniProt Q8TDV0), please?
## Result -4.67

----------
- target_entity: G-protein coupled receptor 151 (Homo sapiens) (UniProt Q8TDV0)
- procedure_summary: activators of human GPR151, primary screen, cell-based, PathHunter beta-arrestin, luminescence (AID 1508602);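 also: 0% = median of compound wells and 100% = cells with positive control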
- experimental_context: PathHunter beta-arrestin GPR151 cells, at 11.2 µM, active compounds read high
Hit rate of the full screen: of about 650,000 compounds, about 6,800 (1%) were called active. Many of the other results were omitted from the sample, so actives are more common in it than they were.
metric_name: activation (%)
Form entry: value (%) — number only.

compound: O=C1CC(N2CCN(Cc3ccccc3)CC2)C(=O)N1c1ccccc1F (stereo not given)
target_entity: G-protein coupled receptor 151 (Homo sapiens) (UniProt Q8TDV0)
unit_text: %
quantitative_readout: -0.408

compound: CC(=O)Nc1ccc(S(=O)(=O)NC2(C(F)(F)F)C(=O)NC(C)=C2C#N)cc1 (stereo not given)
target_entity: G-protein coupled receptor 151 (Homo sapiens) (UniProt Q8TDV0)
unit_text: %
quantitative_readout: 0.355

## Task # activation lookup, item C#CCN1C(=O)C(O)(CC(=O)c2ccc(Br)cc2)c2ccccc21 (stereo not given)
## Result 4.05

## Task Need activation, item CC1CCCC(NCc2c(C(=O)O)n(Cc3ccc(F)cc3)c3ccccc23)C1C (stereo not given)
## Result 0.786

## Task Returns the measured activation for the input compound. Input: Cc1cccc(N(C)C(=O)C2CCCN(S(=O)(=O)c3c(C)noc3C)C2)c1 (stereo not given)
## Result 0.213

## Task Sample CC(C)CNC(=O)C(C)N(c1ccccc1)S(C)(=O)=O (stereo not given) — what was its activation?
## Result 1.91

## Task Quick one: activation for Fc1ccc(C2Oc3ccc(Cl)cc3C3CC(c4cccs4)=NN32)cc1 (stereo not given) ?
## Result 0.238

## Task I have this compound here, COC(=O)[C@@H]1CC[C@H](C)[C@@H](c2ccc(C)cc2)N1C(=O)c1ccc(/C=N/O[C@H](C)c2cn([C@@H]3COC[C@H]3O)nn2)cc1 , and I need its recorded activation.
## Result 7.09

## Task Need activation of COC(=O)c1ccc(-c2cnc3ccc(NCCCO)nn23)cc1 , thanks.
## Result 0.0841

## Task Field request: activation | item: CCc1cc(C(=O)COc2ccc([N+](=O)[O-])cc2)c(O)cc1O
## Result -0.273

----------
This section presents molecules with their documented activation values.
- target_entity: G-protein coupled receptor 151 (Homo sapiens)
- procedure_summary: activators of human GPR151, primary screen, cell-based, PathHunter beta-arrestin, luminescence (AID 1508602);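 also: 0% = median of compound wells and 100% = cells with positive control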
- experimental_context: PathHunter beta-arrestin GPR151 cells, at 11.2 µM, active compounds read high
The campaign covered roughly 650,000 compounds. About 6,800 (1%) were called active. The sample holds actives, similar compounds and a random draw of the others, so the mix is not that of the screen.
Entry rule: numbers only, all in %.

Past entries and their recorded results:
molecule: O=C1Cc2cc(S(=O)(=O)Nc3cccc(Cl)c3)cc3c2N1CCC3
unit_text: %
activation: 5.26

molecule: CCOc1ccc(NC(=O)Nc2ccc(N(C)C(C)=O)cc2)cc1
unit_text: %
activation: 6.4

molecule: CC[n+]1c(/C=C/c2ccc(N(C)C)cc2)oc2ccccc21
unit_text: %
activation: -0.273

molecule: O=C(CCCCn1c(=O)[nH]c2ccccc2c1=O)N1CCN(c2cccc(Cl)c2)CC1
unit_text: %
activation: -0.11

molecule: Cc1cc2c(cc1S(=O)(=O)CCC(=O)Nc1ccccc1Cl)OCC(=O)N2
unit_text: %
activation: 12

## Task Missing value: activation, G-protein coupled receptor 151 (Homo sapiens), entry CCC(C)C(=O)NCc1nnc2n1CCN(C(=O)c1sc(C)nc1C)CC2 (configuration not stated) . Fill in?
## Result -0.99

## Task Request body: readout activation, system G-protein coupled receptor 151 (Homo sapiens), query N#Cc1c(SCC(=O)Nc2ccc(Br)cc2)nsc1SCC(=O)Nc1ccc(Br)cc1 . Return the value.
## Result -0.245

## Task Could you share what activation was measured for CCOC(=O)c1sc(NC(=O)CSc2ncccn2)c(C#N)c1C , tested on G-protein coupled receptor 151 (Homo sapiens)?
## Result 4.97

## Task Quick check: activation on G-protein coupled receptor 151 (Homo sapiens), item Cc1csc(NC(=O)CSc2nnc(Cc3cccn3C)n2-c2ccccc2)n1 ?
## Result 0.245

## Task Identify the measured activation of C/C(CC(=O)Nc1cccc(F)c1)=N\NC(=O)c1cccc(C)c1 for G-protein coupled receptor 151 (Homo sapiens).
## Result 0.312

## Task What value of activation on G-protein coupled receptor 151 (Homo sapiens) does CCOC(=O)c1sc(NC(=O)C(C)Sc2nnc(CNC(=O)c3ccc(OC)cc3)n2Cc2ccccc2)c(C(=O)OCC)c1C (configuration not stated) have?
## Result -1.72

## Task So what activation did O=c1sc2sc(=S)sc2s1 get with G-protein coupled receptor 151 (Homo sapiens)?
## Result -0.693

## Task Test system G-protein coupled receptor 151 (Homo sapiens); read-out activation; what value for CCC1=C(C)c2cc3nc(C(=O)OCc4ccccc4)c(C)c-3c(C)n2C1C (configuration not stated) ?
## Result 5.68

## Task Lab note: need activation for CC1(c2ccc3ccccc3c2)NC(=O)N(CC(N)=O)C1=O (configuration not stated) on G-protein coupled receptor 151 (Homo sapiens), anyone have it?
## Result -0.0365

## Task Missing value: activation, G-protein coupled receptor 151 (Homo sapiens), entry COc1ccc(C2(C)NC(=O)N(CC(=O)Nc3ccc4ccccc4c3)C2=O)cc1 (configuration not stated) . Fill in?
## Result 5.16

## Task Notebook entry, G-protein coupled receptor 151 (Homo sapiens) assay: activation of CCOc1ccc(NC(=O)NC(=O)N(C)S(C)(=O)=O)cc1 = ?
## Result -0.0562

## Task Lookup: activation / G-protein coupled receptor 151 (Homo sapiens) / COc1ccc(NS(=O)(=O)c2cc3c4c(c2)CC(=O)N4CCC3)cc1Cl
## Result 3.82

## Task Which measured activation belongs to COc1cn2c(cc1=O)C(=O)N(CCNC(=O)c1cccc(F)c1)CC2 , tested on G-protein coupled receptor 151 (Homo sapiens)?
## Result 0.552

## Task // fetch G-protein coupled receptor 151 (Homo sapiens) activation for CCc1ccc(NC(=O)CCS(=O)(=O)c2cc3c(cc2Cl)NC(=O)CO3)cc1
## Result 0.977

## Task # value lookup — system G-protein coupled receptor 151 (Homo sapiens), readout activation, item O=C1Cc2cc(S(=O)(=O)Nc3ccc(C(F)(F)F)cc3)cc3c2N1CCC3
## Result -0.781

## Task Query activation on G-protein coupled receptor 151 (Homo sapiens) for CCOC(=O)c1sc(NC(=O)CSc2nnc(-c3ccccc3)o2)c(C#N)c1C
## Result -0.17

## Task Write down the reported activation of CC[n+]1cc(C)ccc1/C=C/c1ccc(N(C)C)cc1 , test system: G-protein coupled receptor 151 (Homo sapiens).
## Result 5.25

All values here come from PubChem BioAssay AID1508602.
